Please respond with reported melting point for every item in the list.

## Task Any idea what melting point was measured for O=C(Nc1ccc(C(=O)Oc2ccccc2)c(Cl)c1)c1ccccc1 ?
## Result 126 to 128 °C

## Task // next record CN(C)c1ccccc1CS(=O)c1nccn1-c1ccc(N)cn1 (configuration not stated)
## Result 140 to 143 °C

## Task // next record CC(=O)C(Cc1cc(Cl)cc(Cl)c1)C(C)=O
## Result 85 to 87 °C

## Task // next record N#Cc1nn(-c2c(Cl)cc(C(F)(F)F)cc2Cl)c(C(O)C(F)(F)F)c1SC(F)(F)F (configuration not stated)
## Result 106 °C

## Task // next record C=C(C)C(=O)N1CCC(C(=O)O)CC1
## Result 90 to 93 °C

## Task // next record Cc1cc(CCCOc2ccc(-c3noc(C(F)(F)F)n3)cc2)on1
## Result 68 to 69 °C

## Task // next record CN1C(=O)CC[C@]2(C)c3ccc(-c4ccc(F)cc4C(F)(F)F)cc3CC[C@@H]12
## Result 70 °C

## Task // next record Cc1nc2cc3c(cc2nc1C(=O)OC(C)(C)C)OC(C)(C)O3
## Result 104 to 105 °C

## Task // next record Cc1cc(Oc2ncnc3ccn(C)c23)ccc1NC(=O)Nc1cccc(C(F)(F)F)c1
## Result 213 to 215 °C

## Task // next record c1nc(-c2ccc(CN3CCCCCC3)s2)n[nH]1
## Result 129 to 130 °C

## Task // next record CCOC(=O)c1cnc(C)nc1NCc1ccc(-c2ccccc2-c2nnn[nH]2)cc1
## Result 121 to 123 °C

## Task // next record CCOC(=O)c1cc(OCc2ccccc2)c2nc(C)n(C)c2c1
## Result 152 °C

----------
Please respond with reported melting point for every item in the list.

## Task Any idea what melting point was measured for COc1ccc(-c2ccc(C(=O)NCCOc3ccc(CC(Oc4ccc(C(C)C)cc4)C(=O)O)cc3)cn2)cc1 (centres undefined) ?
## Result 166 to 167 °C

## Task // next record COC(=O)c1cn(-c2ccc(Oc3ccc(C)cc3O)cc2)nn1
## Result 148 to 151 °C

## Task // next record O=C(O)[C@@H]1CSC(c2ccccc2O)N1C(=O)CCBr (some centres undefined)
## Result 109 to 115 °C

## Task // next record CCNCC1(C)CN(c2cc3c(cc2F)c(=O)c(C(=O)O)cn3C2CC2)C1
## Result 221 to 226 °C

----------
Please respond with reported melting point for every item in the list.

## Task Any idea what melting point was measured for CC(C)c1cccc(C(C)C)c1NC(=O)Nc1nnnn1Cc1ccccc1 ?
## Result 195 to 197 °C

## Task // next record CCOc1cc(Br)ccc1C=NNC(=N)NN=Cc1ccc(Br)cc1OCC
## Result 195 to 197 °C

## Task // next record CN1CCN(c2cccc3c2CC(=O)CC3)CC1
## Result > 85 °C

----------
ASSAY_READOUT: melting point

## Task Any idea what melting point was measured for Cc1cc2nc(O)c(-c3c(F)cc(F)cc3F)c(O)n2n1 ?
## Result 304 °C

## Task // next record CC(C)(C)OC(=O)N[C@H]1CCc2ccc(OCCCC(=O)O)cc2C1
## Result 150 to 153 °C

## Task // next record O=C(NCCSCCNC(=O)c1cccc(Cl)c1)c1cccc(Cl)c1
## Result 150 to 152 °C

## Task // next record COC(=O)c1cccc2[nH]c(-c3ccc(Cl)cc3)c(C=O)c12
## Result 221 to 222 °C

## Task // next record CC(C)CNC(=O)NS(=O)(=O)c1ccc(CCNC(=O)N2CCCCC2=O)cc1
## Result 179 to 181 °C

## Task // next record COc1cc(CCCC2SC(=O)NC2=O)ccc1OCc1csc(/C=C/c2ccccc2)n1 (configuration not stated)
## Result 161 to 162 °C

## Task // next record CCCC1CCC(CC(=O)N[C@@H](Cc2cc(F)cc(F)c2)[C@H](O)CNCc2cccc(CC)c2)CC1=O (some centres not stated)
## Result 52 to 54 °C

## Task // next record COC(=O)c1ccc2ccc(NC(=O)OC(C)(C)C)c(Br)c2c1
## Result 137 to 140 °C

## Task // next record O=Cc1c(N2CCNCC2)n(Cc2ccccc2)c2ccccc12
## Result 163 to 165 °C

## Task // next record CCCCOc1ccc(S(=O)(=O)N2CC(N(Cc3ccccc3)CC(O)COc3cccc4[nH]c5ccccc5c34)C2)cc1 (configuration not stated)
## Result 65 to 67 °C

## Task // next record O=C(O)C1Cc2c([nH]c3ccccc23)CN1C(=S)SCC=Cc1ccccc1 (configuration not stated)
## Result 200 to 202 °C

## Task // next record COc1cccc(CC(CO)NCCC(c2ccccc2)c2ccccc2)c1 (configuration not stated)
## Result 89 to 91 °C

## Task // next record Cn1c(-c2cccc(C(F)(F)F)c2)cc(=O)n(-c2ccc(Cl)cc2F)c1=O
## Result 139 to 142 °C

## Task // next record CC1CNC(c2n[nH]c(-c3ccc(Cl)cc3)c2-c2ccncc2)C(C)N1 (configuration not stated)
## Result 236 to 238 °C

## Task // next record NCC(=O)NCC(=O)Nc1ccc(Cl)cc1C(=O)c1ccccc1
## Result 136 to 138 °C

## Task // next record Clc1ccc(-c2nnnn2Cc2ccccc2)s1
## Result 176 to 177 °C

## Task // next record Cc1nc(Cl)c([N+](=O)[O-])c(NCCOCCNC(=O)OC(C)(C)C)c1C
## Result 70 to 73 °C

## Task // next record CN(C)S(=O)(=O)n1c(C(=S)NC(=O)NS(=O)(=O)c2ccccc2Cl)nc2cc(Cl)c(Cl)cc21
## Result 131 to 132 °C

## Task // next record N#Cc1ccc(S(=O)(=O)N2CCCC2c2ccc(F)cc2)cc1 (racemic)
## Result 147 °C

## Task // next record COc1ccc(CN2CCN(CCCOc3ccc4c(C)cc(=O)[nH]c4c3)CC2)cc1
## Result 167 to 168 °C

## Task // next record OC(Cn1cncn1)(Cn1cnc(Cc2ccc(F)cc2)n1)c1ccccc1C(F)(F)F (configuration not stated)
## Result 100 to 103 °C

## Task // next record COc1ccc([N+](=O)[O-])cc1CNC(C)=O
## Result 158 to 160 °C
